# Test system: P-gp (MDR1)
# ASSAY PROTOCOL: in vitro
# RECORDED CONDITIONS: dog, MDCK-MDR1
READOUT NAME: efflux ratio at 60 min
Numbers only.

get_value(item= c1ccc2c(c1)Nc1ccccc1S2 [10H-phenothiazine] , readout=efflux ratio at 60 min) returns 0.71

====

For each entry below, report its Papp A→B at 60 min value.
# Test system: P-gp (MDR1)
# ASSAY PROTOCOL: in vitro
# RECORDED CONDITIONS: dog, MDCK-MDR1, Permeability coefficient (Papp) MDCK-MDR1 cells (A -> B)
Answers are plain numbers, in ×10⁻⁶ cm/s.

MOLECULE	ASSAYED SYSTEM	READOUT NAME	UNIT TEXT	REPORTED VALUE
CN1CCN(CCCN2c3ccccc3Sc3ccc(S(=O)(=O)N(C)C)cc32)CC1 [Thioproperazine Dimesilate]	P-gp (MDR1)	Papp A→B at 60 min	×10⁻⁶ cm/s	3.35
OCCOCCOCCN1CCN(CC(O)CN2c3ccccc3Sc3ccc(C(F)(F)F)cc32)CC1 (stereo not shown) [MT-016]	P-gp (MDR1)	Papp A→B at 60 min	×10⁻⁶ cm/s	1.05
CC[C@H]1OC(=O)[C@H](C)[C@@H](O[C@H]2C[C@@](C)(OC)[C@@H](O)[C@H](C)O2)[C@H](C)[C@@H](O[C@@H]2O[C@H](C)C[C@H](N(C)C)[C@H]2O)[C@](C)(O)C[C@@H](C)C(=O)[C@H](C)[C@@H](O)[C@]1(C)O [Erythromycin]	P-gp (MDR1)	Papp A→B at 60 min	×10⁻⁶ cm/s	31.9

Turning to the following molecule.
Value of measured Papp A→B at 60 min for the entry C=C[C@H]1C[N@@]2CC[C@H]1C[C@@H]2[C@@H](O)c1ccnc2ccc(OC)cc12 [Quinidine] : 10.1

====

# Tested on: P-gp (MDR1)
# ASSAY PROTOCOL: in vitro
# RECORDED CONDITIONS: dog, MDCK-MDR1, Efflux ratio MDCK-MDR1 cells
Field: efflux ratio at 60 min. Provide a value for each of the compounds that follow.
Give bare numbers.

Each compound below has a recorded value; state its efflux ratio at 60 min.
1. COCCc1ccc(OCC(O)CNC(C)C)cc1 (stereo not drawn) [Metoprolol]
2. CC[C@H]1OC(=O)[C@H](C)[C@@H](O[C@H]2C[C@@](C)(OC)[C@@H](O)[C@H](C)O2)[C@H](C)[C@@H](O[C@@H]2O[C@H](C)C[C@H](N(C)C)[C@H]2O)[C@](C)(O)C[C@@H](C)C(=O)[C@H](C)[C@@H](O)[C@]1(C)O [Erythromycin]

-- reply
0.81
0.96

====

# ASSAY PROTOCOL: in vitro
# RECORDED CONDITIONS: human, Caco-2, Permeability coefficient (Papp) Caco-2 cells (B -> A)
Please respond with reported Papp B→A at 2 h for every item in the list.
Numbers only, in ×10⁻⁶ cm/s.

Before answering, review these 4 worked examples.
MOLECULE	REPORTED VALUE
CN1CCN(CCCN2c3ccccc3Sc3ccc(S(=O)(=O)N(C)C)cc32)CC1 [Thioproperazine Dimesilate]	3.51
FC(F)(F)c1ccc2c(c1)N(CCCCN1CCCCC1)c1ccccc1S2	2.61
CC[C@H]1OC(=O)[C@H](C)[C@@H](O[C@H]2C[C@@](C)(OC)[C@@H](O)[C@H](C)O2)[C@H](C)[C@@H](O[C@@H]2O[C@H](C)C[C@H](N(C)C)[C@H]2O)[C@](C)(O)C[C@@H](C)C(=O)[C@H](C)[C@@H](O)[C@]1(C)O	21.9
OCCOCCOCCN1CCN(CC(O)CN2c3ccccc3Sc3ccc(C(F)(F)F)cc32)CC1 (stereo not drawn)	16.6

Please report Papp B→A at 2 h for every entry that follows.
1. CN1CCN(CCCN2c3ccccc3Sc3ccc(Cl)cc32)CC1
2. COCCc1ccc(OCC(O)CNC(C)C)cc1 (stereo not drawn)

-- reply
0.46
30.2
